Origin of measurements: paper PMC6958422

Molecular target: hA2B AR (Homo sapiens, UniProt P29275)
Construct: expressed in transfected cells; host or cells: CHO cells
Sequence (P29275 whole entry): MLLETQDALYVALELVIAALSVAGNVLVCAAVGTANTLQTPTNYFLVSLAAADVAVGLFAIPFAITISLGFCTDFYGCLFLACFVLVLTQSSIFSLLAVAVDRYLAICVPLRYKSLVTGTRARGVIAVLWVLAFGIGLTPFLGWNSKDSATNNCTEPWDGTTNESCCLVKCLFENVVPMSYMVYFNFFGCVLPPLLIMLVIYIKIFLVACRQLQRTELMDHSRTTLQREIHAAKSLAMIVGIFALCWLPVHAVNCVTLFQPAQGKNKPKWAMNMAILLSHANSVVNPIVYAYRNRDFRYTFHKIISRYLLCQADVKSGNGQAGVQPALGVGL
Experiment: cAMP assay, stimulation of cAMP production in hA2B CHO cells (agonism)
Assay type: cell-based
Conditions: CHO; compound at 1µM, in comparison with NECA (1µM = 100%); read-out: Efficacy hA2B (cAMP assays) (converted)
measured attribute: Emax at 1 µM (%)

In the examples that follow, each entry is paired with its recorded Emax at 1 µM.
>>> measurement("CC(=O)Nc1ccc(-c2c(C#N)c(N)nc(SCc3ncc[nH]3)c2C#N)cc1 [Compound 6]")
100
>>> measurement("N#Cc1cnc(N)c(C#N)c1-c1ccccc1 [Compound 18]")
1
>>> measurement("COc1ccc(CCNc2nc(N)c(C#N)c(-c3ccccc3)c2C#N)cc1 [Compound 16]")
1

[a] N#Cc1c(N)nc(SCc2ncc[nH]2)c(C#N)c1-c1ccc(F)cc1 [Compound 8]
[b] N#Cc1c(N)nc(SCc2ncc[nH]2)c(C#N)c1Cc1ccccc1 [Compound 12]
Inquiry: Quick one: lower Emax at 1 µM, a or b ? Select an item and report its label.
Reply text: b
(b: 44%, a: 76%)

====

melting point reference

>>> measurement("Cc1ccc(-c2c(C#N)c(N)nc(SCc3ncc[nH]3)c2C#N)cc1")
"259 to 261 °C (dec.)"
>>> measurement("N#Cc1c(N)nc(SCc2ncc[nH]2)c(C#N)c1-c1ccc(Cl)cc1")
"229 to 231 °C (dec.)"
>>> measurement("N#Cc1c(N)nc(NCc2ncc[nH]2)c(C#N)c1-c1ccccc1")
"208 to 210 °C"
>>> measurement("CC(C)COc1ccc(-c2c(C#N)c(N)nc(SCc3ncc[nH]3)c2C#N)cc1")
"230 to 232 °C"
>>> measurement("COc1ccc(-c2c(C#N)c(N)nc(NCCO)c2C#N)cc1")
"248 to 250 °C"
>>> measurement("C=C(C)COc1ccc(-c2c(C#N)c(N)nc(SCc3ncc[nH]3)c2C#N)cc1")
"224 to 226 °C"

Now turn to the next molecule.
Inquiry: Using the record for N#Cc1c(N)nc(SCc2ncc[nH]2)c(C#N)c1Cc1ccccc1 , report its melting point.
Reply text: 246 to 248 °C (dec.)

====

melting point overview

Here are 2 molecules together with their reported answers.
>>> measurement("CC(=O)Nc1ccc(-c2c(C#N)c(N)nc(SCc3ncc[nH]3)c2C#N)cc1")
"275 to 278 °C"
>>> measurement("COC(=O)CSc1nc(N)c(C#N)c(-c2ccc(OC)cc2)c1C#N")
"218 to 220 °C"

Inquiry: // query melting point value for entry Cc1c(C#N)c(N)nc(SCc2ncc[nH]2)c1C#N
Reply text: 267 to 269 °C (dec.)

Inquiry: Query: melting point; subject: N#Cc1c(N)nc(SCc2ncc[nH]2)c(C#N)c1-c1ccc(C(F)(F)F)cc1
Reply text: 233 to 235 °C (dec.)

Inquiry: Which melting point value is on record for N#Cc1c(N)nc(SCc2ncc[nH]2)c(C#N)c1-c1ccc(OCC2CCC2)cc1 ?
Reply text: 214 to 216 °C

====

Target: hA3 AR (Homo sapiens, UniProt P0DMS8)
Construct: expressed in transfected cells; host or cells: CHO cells
Sequence (P0DMS8 whole entry): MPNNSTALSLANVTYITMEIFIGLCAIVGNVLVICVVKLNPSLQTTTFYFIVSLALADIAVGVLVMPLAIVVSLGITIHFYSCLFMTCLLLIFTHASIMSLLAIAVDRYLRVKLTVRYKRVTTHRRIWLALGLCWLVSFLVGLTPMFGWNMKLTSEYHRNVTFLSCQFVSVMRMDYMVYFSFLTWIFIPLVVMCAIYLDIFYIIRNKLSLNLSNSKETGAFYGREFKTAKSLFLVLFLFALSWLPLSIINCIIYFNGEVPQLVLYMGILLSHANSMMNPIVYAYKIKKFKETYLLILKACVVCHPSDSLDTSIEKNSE
Assay: [125I]AB-MECA competition binding to hA3 CHO cell membranes
Settings: percentage of inhibition at 1µM
measured attribute: inhibition at 1 µM (%)

Example entries begin here.
>>> measurement("N#Cc1c(N)nc(NCCO)c(C#N)c1-c1ccccc1 [Compound 15]")
1
>>> measurement("N#Cc1c(N)nc(SCc2ncc[nH]2)c(C#N)c1-c1ccc(C(F)(F)F)cc1 [Compound 9]")
21
>>> measurement("N#Cc1c(N)nc(NCc2ncc[nH]2)c(C#N)c1-c1ccccc1 [Compound 14]")
19

[1] N#Cc1cnc(N)c(C#N)c1-c1ccccc1 [Compound 18]
[2] COc1ccc(-c2c(C#N)c(N)nc(NCCO)c2C#N)cc1 [Compound 19]
[3] N#Cc1c(N)nc(-n2ccnc2)c(C#N)c1-c1ccccc1 [Compound 17]
[4] CC(C)COc1ccc(-c2c(C#N)c(N)nc(SCc3ncc[nH]3)c2C#N)cc1 [Compound 2]
[5] C=CCOc1ccc(-c2c(C#N)c(N)nc(SCc3ncc[nH]3)c2C#N)cc1 [Compound 3]
Inquiry: // ranking: key=inhibition at 1 µM, reverse=True Would you mind listing the labels in the order asked for?
Reply text: 3, 2, 5, 1, 4

====

Biological target: hA2B AR (Homo sapiens)
Construct: expressed in transfected cells; host or cells: CHO cells
Assay: cAMP assay, stimulation of cAMP production in hA2B CHO cells (agonism)
Format: cell-based
Details: hA2B CHO cells; means ± SEM of four assays
Protocol: The amino-3,5-dicyanopyridines 1–20 were tested for their affinity at hA1, hA2A, and hA3 ARs, stably transfected in Chinese Hamster Ovary (CHO) cells, and were also studied as hA2B agonists by evaluating their stimulatory effect on cAMP production in CHO cells, stably expressing the hA2B AR. […]
measured attribute: EC50 (µM)

>>> measurement("CSc1ccc(-c2c(C#N)c(N)nc(SCc3ncc[nH]3)c2C#N)cc1 [Compound 11]")
0.036
>>> measurement("N#Cc1c(N)nc(SCc2ncc[nH]2)c(C#N)c1-c1ccc(F)cc1 [Compound 8]")
0.018
>>> measurement("N#Cc1c(N)nc(SCc2ncc[nH]2)c(C#N)c1-c1ccc(Cl)cc1 [Compound 7]")
0.109
>>> measurement("Cc1ccc(-c2c(C#N)c(N)nc(SCc3ncc[nH]3)c2C#N)cc1 [Compound 10]")
0.078
>>> measurement("N#Cc1c(N)nc(SCc2ncc[nH]2)c(C#N)c1Cc1ccccc1 [Compound 12]")
0.26

[a] CC(=O)Nc1ccc(-c2c(C#N)c(N)nc(SCc3ncc[nH]3)c2C#N)cc1 [Compound 6]
[b] C=CCOc1ccc(-c2c(C#N)c(N)nc(SCc3ncc[nH]3)c2C#N)cc1 [Compound 3]
Inquiry: I'm curious, which of these has a smaller EC50 number: a or b ? Please reply using the label of the selected record.
Reply text: a
(a: 0.012 µM, b: 0.027 µM)
